Assay: small-molecule microarray binders of probe aLefty2, primary screen, biochemical, biotinylated probe, 635/667 nm fluorescence (AID 1094);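 note: score merges spot fluorescence near 667 nm with spot signal-to-noise ratio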
Settings: higher = more signal
readout-name: composite z-score

test_smiles=COC(=O)C=CCCc1coc(C=CCNC(=O)OC)n1 readout_number=0.17
test_smiles=CCOC(=O)NN=C1C[C@@H](O)[C@@H](O)[C@@H]2[C@@H]3C(=O)N([C@@H](C)c4ccccc4)C(=O)[C@@H]3CC[C@H]12 readout_number=-0.0458
test_smiles=C#CCCCON=C1C[C@@H](O)[C@@H](O)[C@@H]2[C@@H]3C(=O)N(Cc4ccccc4)C(=O)[C@@H]3CC[C@@H]12 readout_number=-0.0409
test_smiles=O=c1n(Cc2cc3c(cc2Cl)OCO3)c(=O)n2n1CC[C@@H]1C(=NOCc3ccccc3)[C@H]3O[C@H]3[C@@H](O)[C@@H]12 readout_number=-0.0963

---

Reported composite z-score values for a set of compounds
Molecular target: Pro-neuregulin-1, membrane-bound isoform (Homo sapiens)
Experiment: NRG1 binders on small-molecule microarrays, primary screen, psychiatric disease protein project, biochemical, small-molecule microarray, fluorescence 635/667 (AID 1075);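 note: score combines 667 nm spot fluorescence with signal to noise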
Settings: NRG1 binding, 635 nm fluorescence, higher = more signal
readout-name: composite z-score

compound="CCOC(=O)[C@H](CC(C)C)NC(=O)CCC1CC(OC(=O)NCc2cccc3ccccc23)CC2(CCCC(COC(=O)NCCC(C)C)O2)O1 (stereo partly specified)" readout_number=-0.0205
compound=CCCCc1nc2c(c3c1C[C@H](C)OC3)CN(CCOc1ccccc1)CC2 readout_number=0.363
compound=CC(C)=CCCC(C)=CCON=C1C[C@@H](O)[C@@H](O)[C@@H]2[C@@H]3C(=O)N(c4ccc(F)cc4F)C(=O)[C@@H]3CC[C@@H]12 readout_number=0.895
compound=CC(=O)OC[C@H]1O[C@@H](ON=C(C)CCN2CCCc3nc(C)c(C)cc32)[C@H](OC(C)=O)[C@@H](OC(C)=O)[C@@H]1OC(C)=O readout_number=0.394
compound=CC(C)CCN1CCc2nc(COc3ccccc3)c3c(c2C1)CO[C@@H](C)C3 readout_number=0.385
compound=CCOC(=O)C1=NO[C@]2(C=C(Br)C3(OCCCO3)[C@H]3O[C@H]32)C1 readout_number=-0.722
compound=COC(=O)CC=C[C@@H](C)[C@@H](C=NO[C@@H]1O[C@H](COC(C)=O)[C@@H](OC(C)=O)[C@H](OC(C)=O)[C@H]1OC(C)=O)OC readout_number=-0.617
compound="CCOC(=O)[C@H](Cc1ccccc1)NC(=O)CCC1CC(OC(=O)NCCc2ccc(F)cc2)CC2(CCCC(COC(=O)NCCc3ccccc3OC)O2)O1 (stereo partly specified)" readout_number=0.729
compound=C#CCCCON=C1C[C@@H](O)[C@@H](O)[C@@H]2[C@@H]3C(=O)N(C(C)(C)C)C(=O)[C@@H]3CC[C@H]12 readout_number=-0.431
compound="O=C1OCCC=C1C(O)CCc1ccccc1 (stereo unspecified)" readout_number=-0.192
compound="CCOC(=O)[C@H](Cc1ccccc1)NC(=O)CCC1CC(OC(=O)NCCc2ccc(F)cc2)CC2(CCCC(COC(=O)NCC3CCCCC3)O2)O1 (stereo partly specified)" readout_number=0.513
compound=CO[C@H]1COC(=O)CC=C[C@@H](C)[C@H](OC)COC(=O)[C@@H]2CCCN2C(=O)CC=C[C@@H]1C readout_number=-0.591
compound=CCOC(=O)CCN1C(=O)[C@H]2[C@H]3[C@H](O)[C@H](O)CC(=NOCC(C)C)[C@H]3CC[C@H]2C1=O readout_number=-0.312
compound="CCOC(=O)[C@H](Cc1ccccc1)NC(=O)CCC1CC(OC(=O)NCc2ccc3c(c2)OCO3)CC2(CCCC(COC(=O)NCCc3ccccc3OC)O2)O1 (stereo partly specified)" readout_number=1.04
compound=CO[C@H]1COC(=O)[C@@H](C)COC(=O)[C@H](COCc2ccccc2)NC(=O)CC=C[C@H]1C readout_number=-1.19
compound=C[C@@H](c1ccccc1)N1C(=O)[C@H]2[C@H]3[C@H](O)[C@H](O)CC(=NOCc4ccccc4)[C@H]3CC[C@H]2C1=O readout_number=0.381

Where these numbers come from: PubChem BioAssay
